Assay: chemical genetic growth profiling, strain panel (AID 1159580);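 also: tested at 20 µM; growth read once vehicle control cultures reached saturation at 30 °C; 1 = growth at the plate median or of vehicle wells; lower values mean less growth of the strain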
Conditions: S. cerevisiae deletion strains, growth OD, locus YOR316C, strain cot1, hits give low values
The whole screen tested about 5,500 compounds, of which about 2,000 (36%) were called active. Roughly 18% stayed inconclusive and do not appear here. The list shows a part of the results.
Label t when normalized growth is strictly below 1; at or above that, label f.

COc1ccc(CCC(=O)c2c(O)cc(O[C@@H]3O[C@H](CO)C(O)[C@H](O)C3O[C@@H]3O[C@@H](C)[C@H](O)[C@@H](O)[C@H]3O)cc2O)cc1O (stereo partly specified)
t

Now let's try a different one.
[Q] Field: below-cutoff. Rule: recorded normalized growth strictly less than 1. Subject: `O=C(O)COc1ccc(Cl)cc1Cl`
[A] f

---

Assay: chemical genetic growth profiling, strain panel (AID 1159580);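 also: tested at 20 µM; growth read once vehicle control cultures reached saturation at 30 °C; 1 = growth at the plate median or of vehicle wells; lower values mean less growth of the strain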
Conditions: S. cerevisiae deletion strains, growth OD, locus YGR092W, strain DBF2, hits give low values
The whole screen tested about 5,500 compounds, of which about 2,000 (36%) were called active. Not shown: some 18% with an inconclusive outcome. This is one part of the list.
# y = normalized growth below 0.8 (exclusive); n = normalized growth at/above 0.8

[Q] For `Cc1ccccc1/C=C/c1c[nH]c2ccccc12` , is the recorded normalized growth below the cut-off of 0.8?
[A] n

[Q] Record `CC1=CC(=O)N(c2ccc(OC(F)(F)F)cc2)C1=O` : is its normalized growth strictly below 0.8?
[A] y

[Q] Does the reported normalized growth of `CC1=CC(=O)N(c2ccc(F)c(Cl)c2)C1=O` stay below 0.8?
[A] y

[Q] Quick check: does `Clc1ccc(-c2cnc(Nc3cc(Cl)cc(Cl)c3)s2)cc1` have normalized growth under 0.8?
[A] y

---

Test: chemical genetic growth profiling, strain panel (AID 1159580);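 also: tested at 20 µM; growth read once vehicle control cultures reached saturation at 30 °C; 1 = growth at the plate median or of vehicle wells; lower values mean less growth of the strain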
Conditions: S. cerevisiae deletion strains, growth OD, locus YDR297W, strain sur2, hits give low values
Hit rate of the full screen: of about 5,500 compounds, about 2,000 (36%) were called active. Roughly 18% stayed inconclusive and do not appear here. The list shows a part of the results.
Would you mind telling me the reported normalized growth of each entry?
One number for each entry.

Consider the reported normalized growth for these compounds:
CC(=O)C1CCC2C3CCC4C[C@H](O)CCC4(C)C3C[C@H](O)C12C (stereo partly specified)
0.976
NCCCCCC(=O)O
0.998
CC12CCC3C(=CCc4cc(O)ccc43)C1CCC2=O (stereo unspecified)
0.983
c1ccc2c(CC3=NCCN3)cccc2c1
0.975
COc1ccc2c(c1)OCC(Cc1ccc(OC)c(O)c1)C2=O (stereo unspecified)
0.963
COc1ccc2c(c1)OCC(Cc1ccc(OC)c(OC)c1)C2=O (stereo unspecified)
0.949
CCC(C)C(=O)c1c(O)c(C)c2oc3c(C)c(O)c(C(=O)C(C)CC)c(O)c3c2c1O (stereo unspecified)
0.989
CC(=O)O[C@H]1C[C@@]2(C)[C@@H](C[C@@H](O)C3[C@]2(C)CC[C@H]2[C@H](C)[C@H](O)CC[C@]32C)/C1=C(/CCC=C(C)C)C(=O)O (stereo partly specified)
1.02

Give one value of normalized growth per listed compound.
1. CC(C)=CC1C(C(=O)OCc2cccc(Oc3ccccc3)c2)C1(C)C (stereo unspecified)
2. COc1ccc2c(c1)OCC(Cc1ccc(O)c(OC)c1)C2=O (stereo unspecified)
3. COc1cc2c(cc1OC)C1(O)C(=O)c3ccc(O)c(C(=O)O)c3OC1CO2 (stereo unspecified)

[A]
1
0.98
1
